Each entry below carries its measured Ki, system: PR (Homo sapiens).
Sequence (P06401 whole entry): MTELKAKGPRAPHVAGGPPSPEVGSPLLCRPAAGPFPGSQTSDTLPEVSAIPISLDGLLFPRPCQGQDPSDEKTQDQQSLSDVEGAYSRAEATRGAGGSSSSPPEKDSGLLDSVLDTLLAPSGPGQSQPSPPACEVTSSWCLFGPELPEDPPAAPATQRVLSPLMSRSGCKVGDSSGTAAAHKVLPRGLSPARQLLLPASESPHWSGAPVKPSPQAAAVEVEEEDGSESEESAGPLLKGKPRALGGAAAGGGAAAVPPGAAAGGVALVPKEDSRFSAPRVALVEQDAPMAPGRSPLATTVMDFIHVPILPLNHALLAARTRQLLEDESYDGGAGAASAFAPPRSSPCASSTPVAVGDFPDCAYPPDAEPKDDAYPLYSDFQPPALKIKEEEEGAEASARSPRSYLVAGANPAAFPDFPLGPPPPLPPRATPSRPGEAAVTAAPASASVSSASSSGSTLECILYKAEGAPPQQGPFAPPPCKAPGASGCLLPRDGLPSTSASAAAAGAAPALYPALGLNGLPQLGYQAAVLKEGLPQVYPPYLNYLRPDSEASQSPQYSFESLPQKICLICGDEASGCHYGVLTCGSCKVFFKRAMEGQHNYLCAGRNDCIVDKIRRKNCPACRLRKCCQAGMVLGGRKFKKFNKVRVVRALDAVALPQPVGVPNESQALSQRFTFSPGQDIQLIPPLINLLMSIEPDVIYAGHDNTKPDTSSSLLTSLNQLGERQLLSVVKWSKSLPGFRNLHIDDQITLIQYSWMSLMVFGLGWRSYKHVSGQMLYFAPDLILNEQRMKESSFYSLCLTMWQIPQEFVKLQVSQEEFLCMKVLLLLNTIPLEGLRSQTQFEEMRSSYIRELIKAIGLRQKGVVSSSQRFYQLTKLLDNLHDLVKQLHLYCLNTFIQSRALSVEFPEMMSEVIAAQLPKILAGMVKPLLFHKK
Reply numerically in nM, unit not repeated.

N#Cc1cc(F)cc(-c2ccc3[nH]c(=O)cc(C(F)(F)F)c3c2)c1	154
O=c1cc(C(F)(F)F)c2cc(-c3cccc([N+](=O)[O-])c3)ccc2[nH]1	161
CCN(CC(C)(C)C)c1ccc2[nH]c(=O)cc(C(F)(F)F)c2c1	70

Query: Fetch value of Ki on PR (Homo sapiens) for `FC(F)(F)c1cc(=S)[nH]c2ccc(C3CCCCC3)cc12` .
Reply: 136

* * *

Below, each entry is listed with its recorded pEC50.
experimental target: human AR (Homo sapiens)
Sequence (P10275 1-920): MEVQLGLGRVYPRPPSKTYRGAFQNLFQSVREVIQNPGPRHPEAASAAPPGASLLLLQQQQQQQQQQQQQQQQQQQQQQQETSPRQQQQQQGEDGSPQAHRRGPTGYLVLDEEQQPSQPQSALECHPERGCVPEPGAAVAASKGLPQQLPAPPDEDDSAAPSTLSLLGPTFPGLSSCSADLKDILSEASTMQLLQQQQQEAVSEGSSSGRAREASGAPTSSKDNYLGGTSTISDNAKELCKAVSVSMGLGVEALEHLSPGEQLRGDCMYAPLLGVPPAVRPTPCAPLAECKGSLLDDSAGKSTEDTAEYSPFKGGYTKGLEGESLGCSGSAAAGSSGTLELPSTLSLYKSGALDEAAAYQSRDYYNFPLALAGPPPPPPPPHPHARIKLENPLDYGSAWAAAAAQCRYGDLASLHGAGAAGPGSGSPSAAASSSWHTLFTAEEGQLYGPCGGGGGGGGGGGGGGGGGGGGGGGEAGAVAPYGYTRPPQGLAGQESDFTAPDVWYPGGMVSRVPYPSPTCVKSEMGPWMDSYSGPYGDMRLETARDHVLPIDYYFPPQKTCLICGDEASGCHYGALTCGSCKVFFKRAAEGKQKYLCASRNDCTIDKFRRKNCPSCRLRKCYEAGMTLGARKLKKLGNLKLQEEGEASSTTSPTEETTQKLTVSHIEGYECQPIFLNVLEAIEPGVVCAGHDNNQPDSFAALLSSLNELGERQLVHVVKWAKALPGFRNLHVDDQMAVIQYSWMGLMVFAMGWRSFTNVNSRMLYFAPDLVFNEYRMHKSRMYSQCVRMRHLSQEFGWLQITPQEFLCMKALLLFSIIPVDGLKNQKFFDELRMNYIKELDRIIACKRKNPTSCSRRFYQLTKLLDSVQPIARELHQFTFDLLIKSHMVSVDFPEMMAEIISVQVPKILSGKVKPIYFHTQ
assay method text: Co-transfection assay, AR agonist activity (CV-1 cells, MTV-LUC reporter)
assay conditions: CV-1 cells; agonist potency EC50
pEC50: −log10 of the molar value.

# example entries with known answers
O=c1cc(C(F)(F)F)c2cc(-c3cccc(F)c3F)ccc2[nH]1	< 5.00
CC1(C)OC(=O)Nc2ccc(C3=CCCCC3)cc21	< 5.00
CCC[C@@H]1CC[C@H](CCC)N1c1ccc2[nH]c(=O)cc(C(F)(F)F)c2c1	< 5.00
C=CCN(CC=C)c1ccc2[nH]c(=O)cc(C(F)(F)F)c2c1	8.66

Shift focus to the following entry.
Query: Under human AR (Homo sapiens): report pEC50 of `CCCOc1c(NCC(F)(F)F)ccc2[nH]c(=O)cc(C(F)(F)F)c12` .
Reply: < 5.00

* * *

experimental target: human AR (Homo sapiens, UniProt P10275)
assay method text: Co-transfection assay, AR antagonist activity (CV-1 cells, in presence of DHT)
Assay type: cell-based
assay conditions: read-out: AR Antagonist CV-1 Cells Potency
endpoint: IC50 (nM)
The reply should contain only the number, in nM.

Sample records with IC50:
CCC[C@@H]1CC[C@H](CCC)N1c1ccc2[nH]c(=O)cc(C(F)(F)F)c2c1 [Compound 366]	31
CC(C)(C)Nc1ccc2[nH]c(=O)cc(C(F)(F)F)c2c1 [Compound 307]	3.2
Nc1cc2[nH]c(=O)cc(C(F)(F)F)c2cc1OCC(F)(F)F [Compound 571]	14

# ---- query compound ----
Query: Assign IC50 to the following record: O=c1cc(C(F)(F)F)c2cc(N3CCCCC3)ccc2[nH]1 [Compound 311]
Reply: 13

* * *

experimental target: human AR (Homo sapiens, UniProt P10275)
Sequence (P10275 1-920): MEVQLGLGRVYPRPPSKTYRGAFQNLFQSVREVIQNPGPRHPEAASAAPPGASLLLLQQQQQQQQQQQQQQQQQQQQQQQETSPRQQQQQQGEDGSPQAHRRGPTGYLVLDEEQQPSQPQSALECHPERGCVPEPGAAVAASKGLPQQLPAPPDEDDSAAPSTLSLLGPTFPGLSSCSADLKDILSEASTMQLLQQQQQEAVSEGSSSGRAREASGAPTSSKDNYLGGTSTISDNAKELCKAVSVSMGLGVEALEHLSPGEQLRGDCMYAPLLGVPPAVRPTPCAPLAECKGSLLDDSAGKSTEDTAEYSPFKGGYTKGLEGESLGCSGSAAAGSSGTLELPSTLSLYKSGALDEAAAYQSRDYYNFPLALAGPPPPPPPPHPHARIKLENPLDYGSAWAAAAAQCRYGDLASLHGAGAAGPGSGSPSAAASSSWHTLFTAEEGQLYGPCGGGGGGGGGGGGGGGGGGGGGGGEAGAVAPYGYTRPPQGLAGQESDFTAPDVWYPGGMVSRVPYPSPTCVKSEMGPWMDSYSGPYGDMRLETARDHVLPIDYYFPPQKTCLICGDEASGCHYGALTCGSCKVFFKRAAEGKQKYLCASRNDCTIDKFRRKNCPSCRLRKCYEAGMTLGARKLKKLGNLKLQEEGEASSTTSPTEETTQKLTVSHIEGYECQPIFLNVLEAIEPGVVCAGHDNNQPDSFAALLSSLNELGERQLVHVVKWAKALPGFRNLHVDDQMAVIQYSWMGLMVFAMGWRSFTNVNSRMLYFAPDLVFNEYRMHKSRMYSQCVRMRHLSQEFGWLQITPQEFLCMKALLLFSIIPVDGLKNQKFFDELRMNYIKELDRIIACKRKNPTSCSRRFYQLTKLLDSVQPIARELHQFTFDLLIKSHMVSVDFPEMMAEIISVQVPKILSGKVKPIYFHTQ
assay method text: Co-transfection assay, AR agonist activity (CV-1 cells, MTV-LUC reporter)
assay conditions: CV-1 cells; agonist potency EC50
endpoint: pEC50
For clarity, pEC50 is expressed as the negative log10 of concentration in mol/L.

O=c1cc(C(F)(F)F)c2cc(N3CCCC[C@@H]3CCl)ccc2[nH]1	8.19
CC(C)CN(c1ccc2[nH]c(=O)cc(C(F)(F)F)c2c1)C(C)C(F)(F)F (racemic)	7.49
CSCC1CCCCN1c1ccc2[nH]c(=O)cc(C(F)(F)F)c2c1 (racemic)	7.35

Query: Indicate the recorded pEC50 value for this molecule: `C[C@@H]1CC[C@H](C)N1c1ccc2[nH]c(=O)cc(C(F)(F)F)c2c1`
Reply: 8.77

Query: Fill in reported pEC50 for this entry: CC1(C)CC2CC(C)(CN2c2ccc3[nH]c(=O)cc(C(F)(F)F)c3c2)C1 (racemic)
Reply: 7.54

Query: Fill in reported pEC50 for this entry: `CC1(C)OC(=O)Nc2ccc(N(CC(F)(F)F)CC(F)(F)F)cc21`
Reply: 7.92

* * *

experimental target: human AR (Homo sapiens, UniProt P10275)
Sequence (P10275 1-920): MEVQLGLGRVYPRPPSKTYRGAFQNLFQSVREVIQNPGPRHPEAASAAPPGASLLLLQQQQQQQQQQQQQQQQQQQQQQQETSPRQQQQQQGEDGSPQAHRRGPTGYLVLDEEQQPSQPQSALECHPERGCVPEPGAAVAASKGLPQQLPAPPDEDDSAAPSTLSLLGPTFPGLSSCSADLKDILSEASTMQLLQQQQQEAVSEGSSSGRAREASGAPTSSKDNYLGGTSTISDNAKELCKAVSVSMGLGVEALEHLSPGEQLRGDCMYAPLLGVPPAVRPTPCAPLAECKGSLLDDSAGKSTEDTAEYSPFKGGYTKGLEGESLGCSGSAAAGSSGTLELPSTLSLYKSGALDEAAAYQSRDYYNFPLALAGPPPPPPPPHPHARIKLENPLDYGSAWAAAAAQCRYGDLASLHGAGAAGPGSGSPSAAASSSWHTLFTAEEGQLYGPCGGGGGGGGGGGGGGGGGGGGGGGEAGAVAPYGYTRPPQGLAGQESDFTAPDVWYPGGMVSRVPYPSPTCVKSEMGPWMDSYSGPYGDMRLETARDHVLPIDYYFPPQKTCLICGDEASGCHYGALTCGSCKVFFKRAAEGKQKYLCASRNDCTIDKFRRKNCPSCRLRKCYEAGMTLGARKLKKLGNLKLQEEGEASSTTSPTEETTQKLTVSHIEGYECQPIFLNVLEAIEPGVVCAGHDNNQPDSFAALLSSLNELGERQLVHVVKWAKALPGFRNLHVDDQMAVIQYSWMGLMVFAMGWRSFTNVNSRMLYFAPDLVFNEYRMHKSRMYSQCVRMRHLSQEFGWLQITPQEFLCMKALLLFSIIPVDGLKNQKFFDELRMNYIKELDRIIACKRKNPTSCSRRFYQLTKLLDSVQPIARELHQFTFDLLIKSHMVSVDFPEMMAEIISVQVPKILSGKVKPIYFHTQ
assay method text: Co-transfection assay, AR agonist activity (CV-1 cells, MTV-LUC reporter)
assay conditions: CV-1 cells; agonist potency EC50
endpoint: pEC50
pEC50 is defined as minus the log10 of a concentration measured in mol/L.

Illustrative cases are given below, each with its answer.
CC(C)CN(CC(F)(F)F)c1ccc2[nH]c(=O)cc(C(F)(F)F)c2c1 [Compound 259]	8.72
CS(=O)(=O)N(CC(F)(F)F)c1ccc2[nH]c(=O)cc(C(F)(F)F)c2c1 [Compound 295]	7.30
Cn1c(=O)cc(C(F)(F)F)c2cc(N(CC(F)(F)F)CC(F)(F)F)ccc21 [Compound 297]	7.66

Query: State measured pEC50 of the molecule CC1CN(c2ccc3[nH]c(=O)cc(C(F)(F)F)c3c2)C(C(F)(F)F)O1 (racemic) [Compound 351] with human AR (Homo sapiens, UniProt P10275).
Reply: 7.64

Query: Report value: pEC50, system: human AR (Homo sapiens, UniProt P10275), molecule: CC(C)CN(CC(C)C)c1ccc2[nH]c(=O)cc(C(F)(F)F)c2c1 [Compound 221]
Reply: 7.64

Query: Check human AR (Homo sapiens, UniProt P10275) data and give pEC50 for CCCCC1(O)C=C(c2ccc3c(c2)C(C)(C)OC(=O)N3)CCC1 (racemic) [Compound 694] .
Reply: 6.03

Attribution: patent US7696246B2
